Data provenance is paper PMC10746543.

Molecular target: CDK12–cyclin K and DDB1 (Homo sapiens, UniProt Q16531+Q9NYV4, K965R)
Construct: His6–CDK12 (a.a. 713–1,052); full-length or beta-propeller B domain deletion (ΔBPB: a.a. 396–705 deleted) constructs of His6–DDB1ΔBPB, StrepII–Avi–DDB1, or His6–Spy–DDB1; made in house; host or cells: Trichoplusia ni High Five insect cells (baculovirus)
Sequence (Q9NYV4 713-1052 K965R): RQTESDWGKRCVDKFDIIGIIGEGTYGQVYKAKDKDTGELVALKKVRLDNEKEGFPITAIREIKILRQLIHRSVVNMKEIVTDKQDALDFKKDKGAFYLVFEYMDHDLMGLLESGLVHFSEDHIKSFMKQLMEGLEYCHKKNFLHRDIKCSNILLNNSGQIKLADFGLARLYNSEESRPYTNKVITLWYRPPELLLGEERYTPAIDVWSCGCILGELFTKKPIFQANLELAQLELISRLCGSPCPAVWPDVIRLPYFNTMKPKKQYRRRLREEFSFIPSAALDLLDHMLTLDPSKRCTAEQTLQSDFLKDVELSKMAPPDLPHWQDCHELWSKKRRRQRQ
Sequence (O75909 1-267 partner): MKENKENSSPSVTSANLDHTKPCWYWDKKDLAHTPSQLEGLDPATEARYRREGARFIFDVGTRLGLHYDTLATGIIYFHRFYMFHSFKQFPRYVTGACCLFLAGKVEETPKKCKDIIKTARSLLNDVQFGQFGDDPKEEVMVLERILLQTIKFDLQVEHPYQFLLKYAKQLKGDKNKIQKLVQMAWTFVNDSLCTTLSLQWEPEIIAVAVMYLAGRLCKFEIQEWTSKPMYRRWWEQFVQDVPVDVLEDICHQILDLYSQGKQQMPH
Sequence (Q16531 whole entry): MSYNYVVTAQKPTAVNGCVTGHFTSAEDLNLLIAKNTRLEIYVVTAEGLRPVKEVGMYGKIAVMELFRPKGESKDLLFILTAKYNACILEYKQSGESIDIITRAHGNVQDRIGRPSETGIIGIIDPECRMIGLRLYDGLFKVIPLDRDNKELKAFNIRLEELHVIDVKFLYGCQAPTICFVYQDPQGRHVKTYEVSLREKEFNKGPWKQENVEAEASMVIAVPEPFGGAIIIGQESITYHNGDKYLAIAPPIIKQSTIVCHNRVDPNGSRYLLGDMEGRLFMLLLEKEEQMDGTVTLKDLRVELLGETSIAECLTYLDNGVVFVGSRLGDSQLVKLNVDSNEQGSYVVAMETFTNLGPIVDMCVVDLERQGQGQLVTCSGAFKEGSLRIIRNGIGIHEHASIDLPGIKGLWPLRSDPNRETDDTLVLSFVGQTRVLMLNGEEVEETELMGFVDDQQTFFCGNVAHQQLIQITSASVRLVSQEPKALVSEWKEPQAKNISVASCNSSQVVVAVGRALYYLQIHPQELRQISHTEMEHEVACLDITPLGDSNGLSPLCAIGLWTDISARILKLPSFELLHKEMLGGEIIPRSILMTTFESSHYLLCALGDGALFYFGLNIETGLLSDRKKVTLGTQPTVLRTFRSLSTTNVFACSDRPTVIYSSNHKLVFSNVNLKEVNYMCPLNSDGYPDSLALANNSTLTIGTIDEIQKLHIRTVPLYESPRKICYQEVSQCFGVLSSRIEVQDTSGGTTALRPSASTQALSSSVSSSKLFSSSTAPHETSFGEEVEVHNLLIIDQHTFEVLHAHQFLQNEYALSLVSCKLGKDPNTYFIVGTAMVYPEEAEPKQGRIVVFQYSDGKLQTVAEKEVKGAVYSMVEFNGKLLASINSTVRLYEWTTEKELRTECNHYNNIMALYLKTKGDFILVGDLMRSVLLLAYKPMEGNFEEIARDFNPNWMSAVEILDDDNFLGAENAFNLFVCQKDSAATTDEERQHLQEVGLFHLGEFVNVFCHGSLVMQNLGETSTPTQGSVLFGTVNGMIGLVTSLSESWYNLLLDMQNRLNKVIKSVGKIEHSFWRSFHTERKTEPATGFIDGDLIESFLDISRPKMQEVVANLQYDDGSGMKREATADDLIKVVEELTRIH
Test: TR-FRET Kd determination, quadratic fit, 50 nM or 10 nM CDK12–cyclin K
Type: binding
Settings: 50 nM CDK12-cyclin K; compound 244.8 nM
measure: TR-FRET signal

- molecule: "CCC(CO)Nc1nc(NCc2ccc(-c3ccccn3)cc2)c2ncn(C(C)C)c2n1 (stereo not shown) [CR8, reference compound]"
  target-or-test-system: "CDK12–cyclin K and DDB1 (Homo sapiens, UniProt Q16531+Q9NYV4, K965R)"
  TR-FRET signal: 2.999
- molecule: "Cc1cc2nc(CNc3nc(N4CCN(C)CC4)nc4c(Br)cnn34)[nH]c2cc1C [DS73, reference compound]"
  target-or-test-system: "CDK12–cyclin K and DDB1 (Homo sapiens, UniProt Q16531+Q9NYV4, K965R)"
  TR-FRET signal: 3.183
- molecule: "CC[C@H](CO)Nc1nc(NCc2nc3cc(Cl)c(Cl)cc3[nH]2)c2ncn(C(C)C)c2n1"
  target-or-test-system: "CDK12–cyclin K and DDB1 (Homo sapiens, UniProt Q16531+Q9NYV4, K965R)"
  TR-FRET signal: 3.353
- molecule: "CCC(CO)Nc1nc(NCc2ccc(-c3ccccc3)cc2)c2ncn(C(C)C)c2n1 (stereo not shown)"
  target-or-test-system: "CDK12–cyclin K and DDB1 (Homo sapiens, UniProt Q16531+Q9NYV4, K965R)"
  TR-FRET signal: 2.498
